Where do these numbers come from? They come from ChEMBL document CHEMBL1148010.

pKi: −log10 of the molar value.
Data export: pKi values recorded with UniProt P31645.
Sequence (P31645 whole entry): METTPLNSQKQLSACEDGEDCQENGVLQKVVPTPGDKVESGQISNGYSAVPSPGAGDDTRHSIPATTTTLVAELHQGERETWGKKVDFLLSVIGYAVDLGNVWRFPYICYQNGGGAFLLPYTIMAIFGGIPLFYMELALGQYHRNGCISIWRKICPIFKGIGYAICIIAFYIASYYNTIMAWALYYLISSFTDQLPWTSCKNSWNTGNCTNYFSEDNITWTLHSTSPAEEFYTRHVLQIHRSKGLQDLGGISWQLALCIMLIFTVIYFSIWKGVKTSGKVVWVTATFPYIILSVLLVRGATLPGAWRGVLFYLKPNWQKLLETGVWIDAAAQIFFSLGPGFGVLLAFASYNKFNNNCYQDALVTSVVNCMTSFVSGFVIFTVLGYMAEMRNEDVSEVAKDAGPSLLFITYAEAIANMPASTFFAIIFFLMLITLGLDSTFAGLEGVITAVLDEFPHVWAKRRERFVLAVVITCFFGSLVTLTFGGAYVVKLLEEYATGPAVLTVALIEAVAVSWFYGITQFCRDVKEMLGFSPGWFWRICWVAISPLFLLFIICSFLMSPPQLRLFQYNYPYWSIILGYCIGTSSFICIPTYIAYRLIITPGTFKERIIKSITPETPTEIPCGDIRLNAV
PROPERTY_MEASURED: pKi

>>> print(df.to_string())
                              line_notation  value
0  COC(=O)[C@@H]1[C@H]2CC[C@H](C[C@H]1c1ccc(C)c(F)c1)N2   7.37
1  COC(=O)[C@@H]1[C@H]2CC[C@H](C[C@H]1c1ccc(C)cc1)N2   6.87
2  C#Cc1ccc([C@@H]2C[C@H]3CC[C@@H](N3)[C@H]2C(=O)OC)cc1   8.46
3  C=Cc1ccc([C@@H]2C[C@H]3CC[C@@H](N3)[C@H]2C(=O)OC)cc1   8.04
4  COC(=O)[C@@H]1[C@H]2CC[C@H](C[C@H]1c1ccc(I)cc1)N2   8.38
